experiment: Biomimetic HPLC lipophilicity determination, cholesterol-bound column
Type: physicochemical
measurement conditions: CHOL column, ACN-phosphate buffer pH 7.4
experimental endpoint: s (slope of Soczewiński-Wachtmeister equation)

{"molecule": "CC(C)(O)[C@@H]1CC[C@](C)([C@H]2[C@@H](O)C[C@@]3(C)[C@@H]4C[C@H](O)[C@H]5C(C)(C)[C@@H](O[C@@H]6OC[C@@H](O)[C@H](O)[C@H]6O[C@@H]6O[C@H](CO)[C@@H](O)[C@H](O)[C@H]6O)CC[C@@]56C[C@@]46CC[C@]23C)O1 [A III, Astragaloside III]", "observed result": 5.681}
{"molecule": "CC(=O)OC1C(O)COC(OC2CCC34CC35CCC3(C)C(C6(C)CCC(C(C)(C)O)O6)C(O)CC3(C)C5CC(OC3OC(CO)C(O)C(O)C3O)C4C2(C)C)C1OC(C)=O (stereo not shown) [A I, Astragaloside I]", "observed result": 5.590}
{"molecule": "CC(=O)O[C@H]1[C@H](O[C@H]2CC[C@]34C[C@]35CC[C@]3(C)[C@@H]([C@@]6(C)CC[C@@H](C(C)(C)O)O6)[C@@H](O)C[C@@]3(C)[C@@H]5C[C@H](O[C@@H]3O[C@H](CO)[C@@H](O)[C@H](O)[C@H]3O)[C@H]4C2(C)C)OC[C@@H](O)[C@@H]1O [A II, Astragaloside II]", "observed result": 6.570}

The recorded s (slope of Soczewiński-Wachtmeister equation) for CC(C)(O)[C@@H]1CC[C@](C)([C@H]2[C@@H](O)C[C@@]3(C)[C@@H]4C[C@H](O[C@@H]5O[C@H](CO)[C@@H](O)[C@H](O)[C@H]5O)[C@H]5C(C)(C)[C@@H](O[C@@H]6OC[C@@H](O)[C@H](O)[C@H]6O)CC[C@@]56C[C@@]46CC[C@]23C)O1 [A IV, Astragaloside IV] is 6.000

---

experiment: Biomimetic HPLC lipophilicity determination, cholesterol-bound column
Format: physicochemical
measurement conditions: CHOL column, ACN-phosphate buffer pH 7.4, retention factor extrapolated to pure water
For each entry below, report its logkw value.
One number for each entry.

Recorded results for 3 compounds are shown here.
{"compound": "CC(=O)O[C@H]1[C@H](O[C@H]2CC[C@]34C[C@]35CC[C@]3(C)[C@@H]([C@@]6(C)CC[C@@H](C(C)(C)O)O6)[C@@H](O)C[C@@]3(C)[C@@H]5C[C@H](O[C@@H]3O[C@H](CO)[C@@H](O)[C@H](O)[C@H]3O)[C@H]4C2(C)C)OC[C@@H](O)[C@@H]1O [A II, Astragaloside II]", "experimental endpoint": "logkw", "observed result": 3.209}
{"compound": "CC(C)(O)[C@@H]1CC[C@](C)([C@H]2[C@@H](O)C[C@@]3(C)[C@@H]4C[C@H](O)[C@H]5C(C)(C)[C@@H](O[C@@H]6OC[C@@H](O)[C@H](O)[C@H]6O[C@@H]6O[C@H](CO)[C@@H](O)[C@H](O)[C@H]6O)CC[C@@]56C[C@@]46CC[C@]23C)O1 [A III, Astragaloside III]", "experimental endpoint": "logkw", "observed result": 2.627}
{"compound": "CC(C)(O)[C@@H]1CC[C@](C)([C@H]2[C@@H](O)C[C@@]3(C)[C@@H]4C[C@H](O[C@@H]5O[C@H](CO)[C@@H](O)[C@H](O)[C@H]5O)[C@H]5C(C)(C)[C@@H](O[C@@H]6OC[C@@H](O)[C@H](O)[C@H]6O)CC[C@@]56C[C@@]46CC[C@]23C)O1 [A IV, Astragaloside IV]", "experimental endpoint": "logkw", "observed result": 2.668}

The recorded logkw for CC(=O)OC1C(O)COC(OC2CCC34CC35CCC3(C)C(C6(C)CCC(C(C)(C)O)O6)C(O)CC3(C)C5CC(OC3OC(CO)C(O)C(O)C3O)C4C2(C)C)C1OC(C)=O (stereo not shown) [A I, Astragaloside I] is 3.234

// data source = paper PMC10252989
